meta.source: ChEMBL document CHEMBL2157969

// values below are reported fractional inhibitory concentration index (FICI)
test target: Quinolone resistance protein NorA (Staphylococcus aureus)
assay explanation: Inhibition of norA in Staphylococcus aureus SA-1199B overexpressing norA assessed as fold reduction in ciprofloxacin MIC at 25 ug/mL by checkerboard assay
outcome measure: fractional inhibitory concentration index (FICI)

* CN(C)CCOc1ccc(C(=O)/C=C/c2ccccc2)cc1 | > 0.5
* CN(C)CCOc1ccc(C(=O)/C=C/c2ccccc2F)cc1 | 0.25
* COc1ccc(/C=C/C(=O)c2ccc(O)cc2)cc1OC | 0.25

* * *

test target: Quinolone resistance protein NorA (Staphylococcus aureus)
experimental setup: ATCC 29213
outcome measure: FICI

* COC(=O)[C@H]1[C@H]2C[C@@H]3c4[nH]c5cc(OC)ccc5c4CCN3C[C@H]2C[C@@H](OC(=O)c2cc(OC)c(OC)c(OC)c2)[C@@H]1OC [RESERPINE] | 0.25
* CN(C)CCOc1ccc(C(=O)/C=C/c2ccc(Oc3ccccc3)cc2)cc1 | 0.26
* COc1cccc(/C=C/C(=O)c2ccc(O)cc2)c1OC | 0.25
* COc1ccc(/C=C/C(=O)c2ccc(O)cc2)c(OC)c1 | 0.25
